experiment-notes: 4-week repeat-dose toxicity/TK study in dogs
Type: in vivo, beagle dogs
condition-details: female, beagle, dog, plasma, po, 25 mg/kg/day, day 28, PO 25 mg/kg/day, F
measurement-name: Cmax (ng/mL)

compound | measurement-name | measured-number
C[C@]12CC[C@@H]3c4ccc(B(O)O)cc4C[C@@H](CCCCCCCCC[S+]([O-])CCCC(F)(F)C(F)(F)F)[C@H]3[C@@H]1CC[C@@H]2O (stereo partly shown) [ZB716, fulvestrant-3-boronic acid] | Cmax | 1590

====

experiment-notes: 4-week repeat-dose toxicity/TK study in rats
Type: in vivo, Sprague Dawley rats
condition-details: female, Sprague Dawley (Crl: CD (SD)), rat, plasma, po, 100 mg/kg/day, day 28, PO 100 mg/kg/day, Female

molecule | Tmax, h
C[C@]12CC[C@@H]3c4ccc(B(O)O)cc4C[C@@H](CCCCCCCCC[S+]([O-])CCCC(F)(F)C(F)(F)F)[C@H]3[C@@H]1CC[C@@H]2O (stereo partly shown) [ZB716, fulvestrant-3-boronic acid] | 1

====

experiment-notes: 4-week repeat-dose toxicity/TK study in dogs
Assay type: in vivo, beagle dogs
condition-details: male, beagle, dog, plasma, po, 25 mg/kg/day, day 1, PO 25 mg/kg/day, M
measurement-name: AUC(0-t) (ng·h/mL)

molecule | measured-number
C[C@]12CC[C@@H]3c4ccc(B(O)O)cc4C[C@@H](CCCCCCCCC[S+]([O-])CCCC(F)(F)C(F)(F)F)[C@H]3[C@@H]1CC[C@@H]2O (stereo partly shown) | 1980

====

experiment-notes: 4-week repeat-dose toxicity/TK study in rats
Format: in vivo, Sprague Dawley rats
condition-details: male, Sprague Dawley (Crl: CD (SD)), rat, plasma, po, 100 mg/kg/day, day 1, PO 100 mg/kg/day, Male

compound | unit-descriptor | Tmax
C[C@]12CC[C@@H]3c4ccc(B(O)O)cc4C[C@@H](CCCCCCCCC[S+]([O-])CCCC(F)(F)C(F)(F)F)[C@H]3[C@@H]1CC[C@@H]2O (stereo partly shown) | h | 1

====

experiment-notes: Single-dose PK and bioavailability of ZB716 in rats
Type: in vivo
condition-details: male, Sprague Dawley, rat, plasma; single dose, PO 30 mg/kg/day, M

molecule | Cmax [ng/mL]
C[C@]12CC[C@@H]3c4ccc(B(O)O)cc4C[C@@H](CCCCCCCCC[S+]([O-])CCCC(F)(F)C(F)(F)F)[C@H]3[C@@H]1CC[C@@H]2O (stereo partly shown) | 1720

====

experiment-notes: 7-day repeated-dose PK in rats
Assay type: in vivo, Sprague Dawley rats
condition-details: male, Sprague Dawley, rat, plasma, po, 100 mg/kg/day, day 1, PO 100 mg/kg/day, M; read-out: Tmax (median)
Procedure: Groups of Sprague Dawley rats (n = 5/sex/group; n = 3/sex/TK group) were orally administered ZB716 (20% PG, 5% Solutol, and 75% of 40% HP-β-CD in DI water) at dose levels of 10, 100, and 400 mg/kg/day for 7 days. […] Systemic exposure, expressed as Cmax and AUClast values, increased with dose in a less than dose-proportional manner on days 1 and 7 (Figure 2). […]

compound | Tmax
C[C@]12CC[C@@H]3c4ccc(B(O)O)cc4C[C@@H](CCCCCCCCC[S+]([O-])CCCC(F)(F)C(F)(F)F)[C@H]3[C@@H]1CC[C@@H]2O (stereo partly shown) | 30 min

Data origin: paper PMC8400955
